STUDY TARGET: T1, human MSLN-R3 protein (Met487-Ser606 of NCBI AAH09272.1) expressed on HEK293T-hMSLN-R3 cells (human, UniProt Q13421 487-606)
T1 construct: also called Region3
T1 sequence (Q13421 495-614): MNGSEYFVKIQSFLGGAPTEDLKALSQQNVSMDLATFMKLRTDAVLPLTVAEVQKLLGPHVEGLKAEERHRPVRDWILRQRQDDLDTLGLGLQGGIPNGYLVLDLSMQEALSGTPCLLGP
METHOD DESCRIPTION: FACS on HEK293T-hMSLN-R3 cells
Recorded Maximum mean fluorescence intensity values for a group of binders are listed next.
Answer field: number only, no words.

Worked examples follow.
S009-F4-94.15 (antibody, human IgG1, kappa, V domains shown, human-murine chimeric antibody, human IgG1/kappa constant regions) VH: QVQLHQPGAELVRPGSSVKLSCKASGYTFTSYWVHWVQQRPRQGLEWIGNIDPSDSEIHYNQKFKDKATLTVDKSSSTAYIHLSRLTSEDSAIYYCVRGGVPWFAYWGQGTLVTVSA VL: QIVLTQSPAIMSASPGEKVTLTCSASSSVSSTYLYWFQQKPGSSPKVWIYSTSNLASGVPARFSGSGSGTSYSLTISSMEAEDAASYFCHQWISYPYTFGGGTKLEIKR
84
S009-F6-76.1 (antibody, human IgG1, kappa, V domains shown, human-murine chimeric antibody, human IgG1/kappa constant regions) VH: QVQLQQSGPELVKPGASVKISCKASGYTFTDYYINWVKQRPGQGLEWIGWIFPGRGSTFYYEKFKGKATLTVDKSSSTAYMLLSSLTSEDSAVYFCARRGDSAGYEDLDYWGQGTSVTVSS VL: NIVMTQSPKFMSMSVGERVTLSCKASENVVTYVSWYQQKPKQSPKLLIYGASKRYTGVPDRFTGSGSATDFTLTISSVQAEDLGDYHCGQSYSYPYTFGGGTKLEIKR
135

Continue with the next binder.
**Query** I am curious: what Maximum mean fluorescence intensity value has been reported for S009-F5-9.16 (antibody, human IgG1, kappa, V domains shown, human-murine chimeric antibody, human IgG1/kappa constant regions) VH: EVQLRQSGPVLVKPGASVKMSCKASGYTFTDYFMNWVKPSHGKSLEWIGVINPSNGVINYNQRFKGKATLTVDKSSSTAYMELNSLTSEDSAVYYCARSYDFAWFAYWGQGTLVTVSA VL: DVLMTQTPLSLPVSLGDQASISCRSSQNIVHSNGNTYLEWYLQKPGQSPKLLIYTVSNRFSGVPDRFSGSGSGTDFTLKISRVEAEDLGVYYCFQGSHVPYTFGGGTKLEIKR ?
**Result** 63900
